# target-desc: hGLP-1R (Homo sapiens, UniProt P43220)
# Sequence (P43220 24-463): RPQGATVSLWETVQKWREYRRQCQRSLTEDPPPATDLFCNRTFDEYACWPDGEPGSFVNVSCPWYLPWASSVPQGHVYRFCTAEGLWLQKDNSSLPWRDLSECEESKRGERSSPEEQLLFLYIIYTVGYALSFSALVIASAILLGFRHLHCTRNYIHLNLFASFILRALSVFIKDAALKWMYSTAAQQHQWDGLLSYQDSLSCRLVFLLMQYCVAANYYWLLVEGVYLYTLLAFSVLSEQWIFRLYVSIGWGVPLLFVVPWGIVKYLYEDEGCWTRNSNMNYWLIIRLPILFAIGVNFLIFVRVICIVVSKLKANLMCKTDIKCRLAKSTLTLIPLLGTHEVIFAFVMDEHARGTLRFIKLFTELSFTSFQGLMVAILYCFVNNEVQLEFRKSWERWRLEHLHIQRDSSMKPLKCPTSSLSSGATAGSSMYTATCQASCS
# procedure-details: cell-based or functional assay
Non-standard residues stand in square brackets, D forms with d. No end group written: not given here. αMeL = CC(C)C[C@](C)(N)C(=O)O; Aib = CC(C)(N)C(=O)O
measurement-name: cAMP Rel EC50 (1% HSA) (nM)
Respond with the bare value in nM.

Answered examples (3):
[[record]]
binder = "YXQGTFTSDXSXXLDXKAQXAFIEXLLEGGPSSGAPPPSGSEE (non-natural residues, Glu-γGlu-C18 diacid acylation, C-terminal amide; synthetic construct; SITE 2: note = 2-Aminoisobutyric Acid; SITE 10: note = 3-(4-Pyridyl)-L-alanine; SITE 12: note = L-ornithine; SITE 13: note = alpha-methyl-leucine; SITE 16: note = L-ornithine; SITE 17: note = Lysine is chemically modified through conjugation of the epsilon-amino group of the Lys) [Example 1066]"
recorded_number = 1850

[[record]]
binder = "YXQGTXTSDXSIXLDKKAQXXFIEYLSEGGPSSGEPPPEGSEE (synthetic construct; SITE 2: note = 2-Aminoisobutyric Acid; SITE 6: note = alpha-methyl-2-fluoro-L-phenylalanine; SITE 10: note = 3-(4-Pyridyl)-L-alanine; SITE 13: note = alpha-methyl-leucine; SITE 17: note = Lysine is chemically modified through conjugation of the epsilon-amino group of the Lysine) [Example 651]"
recorded_number = 53.9

[[record]]
binder = "YXQGTXTSDXSIXLDXKAQXXFIEXLIEGGPSSGEPPPSGE (synthetic construct; SITE 2: note = 2-Aminoisobutyric Acid; SITE 6: note = alpha-methyl-2-fluoro-L-phenylalanine; SITE 10: note = 3-(4-Pyridyl)-L-alanine; SITE 13: note = alpha-methyl-leucine; SITE 16: note = L-ornithine; SITE 17: note = Lysine is chemically modified through conjugation of the epsil) [Example 682]"
recorded_number = 14


Okay, now this binder:
Qu. # get_value(readout='cAMP Rel EC50 (1% HSA)', item= Y[Aib]QGTFTSDYSK[αMeL]LDKKAQQAFIEYLLAGGPSSGEPPPSGE-NH2 (not fully specified (residue 17)) [Example 344] )
Ans. 523
